Source: the Human Domainome abundance scans (Beltran et al. 2025)

B1: Far upstream element-binding protein 2, residues 142 to 214; numbered along this chain, Q92945 (parent)
chain: RTSMTEEYRVPDGMVGLIIGRGGEQINKIQQDSGCKVQISPDSGGLPERSVSLTGAPESVQKAKMMLDDIVSR

Variants of: B1
TEST: abundance fitness (aPCA) (normalised: wild type 0, dead -1); higher = more abundant; growth selection in yeast, the domain comes from the species named
CONDITION_INFO: Homo sapiens
Each entry gets f if its abundance fitness stays under -0.06, and t if its abundance fitness is -0.06 or above.

Worked set:
[
  {
    "VARIANT_DESIGNATION": "S40C",
    "CLASSIFICATION": "t"
  },
  {
    "VARIANT_DESIGNATION": "M65S",
    "CLASSIFICATION": "t"
  },
  {
    "VARIANT_DESIGNATION": "A63N",
    "CLASSIFICATION": "f"
  }
]

Query: Could you tell me if the measured abundance fitness of `R73F` reaches -0.06 or more?
Response: f

Query: Kindly determine if abundance fitness recorded for `G34P` is above or exactly -0.06.
Response: f

Query: Reported abundance fitness reaches at least -0.06 for `Q31M` ?
Response: f

Query: Determine whether this variant has abundance fitness no lower than -0.06: `T54P`
Response: f

Query: Test whether the variant `S43R` records abundance fitness of -0.06 or higher.
Response: t

Query: Can `S52R` be said to have abundance fitness at or above -0.06?
Response: t
